B1: tRNA (parent)
chain: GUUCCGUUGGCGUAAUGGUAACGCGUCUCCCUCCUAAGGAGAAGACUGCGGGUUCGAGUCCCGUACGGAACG

- Variants of: B1
- Protocol Description: yeast fitness relative to wild type (ratio to wild type); higher = fitter; tRNA-Arg(CCU), competitive growth, 37 C, YPD
This sample holds only a part of the variants without activity.
Parameter Measured: yeast fitness

Item: U16C A40U A65U | yeast fitness: 0.588
